Target: Neu5Ac(a2-8)Neu5Ac(a2-3)[GalNAc(b1-4)]Gal(b1-4)Glc
Test: glycan array binding signal (z-score within array); higher = stronger binding
Settings: glycan notation: IUPAC condensed, linker removed
Many of the other results were omitted from the sample, so the strongest signals are more common in it than they were.
readout kind: glycan array binding signal (z-score)
Keep the answer to the number alone.

## Input Look up and state reported glycan array binding signal (z-score) for RsaA-N-term (Caulobacter crescentus), P35828 (protein) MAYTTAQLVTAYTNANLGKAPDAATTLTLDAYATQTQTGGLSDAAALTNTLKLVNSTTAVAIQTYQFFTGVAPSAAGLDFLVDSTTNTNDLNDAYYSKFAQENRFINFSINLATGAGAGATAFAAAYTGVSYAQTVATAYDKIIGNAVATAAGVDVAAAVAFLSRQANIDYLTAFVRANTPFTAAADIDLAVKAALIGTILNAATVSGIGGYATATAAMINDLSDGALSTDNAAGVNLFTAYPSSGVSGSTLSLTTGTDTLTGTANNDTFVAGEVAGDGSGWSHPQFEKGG
## Output -0.001
